# Tested on: LOX IMVI melanoma
# Protocol: NCI-60 one-dose screen, 48 h (100 = growth as untreated, 0 = no growth, -100 = all killed)
# Condition label: 10 µM unless noted
This is part of a sample that, as a whole, favours compounds with a hit. Of some 83,000 tested, about 20% had one in any assay.
Binary call on growth: 1 from 80% upward, 0 beneath that.

Known results for compounds:
CC([C@H]1CCC2C3CCC4C[C@@H](NC=O)CC[C@]4(C)C3CC[C@@]21C)N(C)C (stereo not given in full)    0
CNc1nc2c(s1)C(c1cccc(F)c1)CC(=O)N2 (stereo not given)    1
Cc1nc(NC(=O)COc2ccc(/C=C3\Cc4ccc(Cl)cc4C3=O)cc2)sc1C    0
CCOC(=O)c1[nH]c(C)c(C(=O)OCc2ccccc2C#N)c1C    0
CCOc1c(B(O)O)cccc1-c1nc2ccc3[nH]ncc3c2c2c1CCCC2    0

Task: Can N#Cc1c(-c2ccc(Cl)cc2)nc(NCCO)[nH]c1=O be said to have growth at or above 80%?
Result: 1

Task: Quick one: CCOC(=O)CC1C(COC(=O)NC)OC(n2cnc3c(NC(=O)Nc4ccccc4)ncnc32)C1O[Si](C)(C)C(C)(C)C (stereo not given)
Result: 0

* * *

// reported growth per item
# Tested on: MCF7 breast
# Protocol: NCI-60 one-dose screen, 48 h (100 = growth as untreated, 0 = no growth, -100 = all killed)
# Condition label: 10 µM unless noted
Compounds without any hit were thinned out: in the full panel of roughly 83,000, 20% have a hit.
Quick note: give the figure in %, leave out the unit.

Here's what some known entries look like.
COc1ccc(-c2nc3sc(-c4ccccc4)cn3n2)cc1    25.1
COc1ccc(-c2ncnc3c2ncn3CC#CCCl)cc1    35.7
CS(=O)(=O)N(c1cc(-c2ccc3ncnc(Nc4ccc(F)c(Cl)c4)c3c2)cnc1Cl)S(C)(=O)=O    12
CCOc1ccc2nc(SCc3nc4n(n3)S(=O)(=O)c3ccccc3N4C)sc2c1    47.3
Cc1cccc(OCC(O)CN2CCN(c3ccc(Cl)cc3)CC2)c1 (stereo not given)    87.5
O=C(/C=C/c1cccc2ccccc12)c1ccc(NC(=O)c2ccccc2CN2C(=O)c3ccccc3C2=O)cc1    56.7
CCc1cccc2c1S/C(=C/c1ccc(OC)cc1)C2=O    22.3
C/C(=C\C(=O)c1ccc(Cl)cc1)c1ccc(Cl)cc1    19.4
COc1cc(C2CC(c3ccc(SC)cc3)=NN2C(C)=O)cc(OC)c1OC (stereo not given)    41.9

Could you now consider this next compound?
Task: Which growth is reported with MCF7 breast for this entry: COc1cccc(OC)c1C(=O)N[C@@H]1C(=O)N2[C@@H]1SC(C)(C)[C@@H]2C(=O)O ?
Result: 98

* * *

# System: SK-OV-3 ovarian
# Protocol: NCI-60 one-dose screen, 48 h (100 = growth as untreated, 0 = no growth, -100 = all killed)
# Condition label: 10 µM unless noted
Compounds without any hit were thinned out: in the full panel of roughly 83,000, 20% have a hit.
Please assign 0.0 whenever growth is at or above 80%, and 1.0 whenever it is below.

Known results for compounds:
NC[C@@H]1O[C@H](O[C@@H]2[C@@H](CO)OC(O[C@@H]3[C@@H](O)[C@H](N)C[C@H](N)[C@H]3OC3O[C@H](CN)[C@@H](O)[C@H](O)[C@H]3N)[C@@H]2O)[C@H](N)[C@@H](O)[C@@H]1O (stereo partly drawn)    0.0
COc1cccc(-c2nc(-c3ccc(NS(=O)(=O)c4ccccc4)cc3)[nH]c2-c2ccnc(Br)c2)c1    1.0
O=[N+]([O-])c1ccc(Cl)c(-c2cc(CCCCO)on2)c1    0.0
O=C(Nc1ccc(Br)cc1F)c1cc(Br)ccc1O    1.0
CCOC(=O)C1=C(N)Oc2c(sc3c(CC)cccc23)C1c1ccc(F)cc1 (stereo not drawn)    1.0
COc1cc2cc(Oc3ccc(NC(=O)Nc4cccc(C(F)(F)F)c4)cc3)c(C)nc2cc1OCCN1CCOCC1    0.0

Task: Decide: growth of COc1cc(CCC[P+](c2ccccc2)(c2ccccc2)c2ccccc2)c(OC)c(OC)c1OC strictly below 80%?
Result: 0.0

Task: Quick one: CCc1ccc(Oc2c(-c3ccc(OCc4ccc(Cl)cc4)cc3O)n[nH]c2C(F)(F)F)cc1
Result: 1.0

Values from PubChem BioAssay (NCI)
